protocol details: chemical genetic growth profiling, strain panel (AID 1159580);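 further: tested at 20 µM; growth read once vehicle control cultures reached saturation at 30 °C; 1 = growth at the plate median or of vehicle wells; lower values mean less growth of the strain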
condition info: S. cerevisiae deletion strains, growth OD, locus YLR268W, strain sec22, stronger effect = lower value
The campaign covered roughly 5,500 compounds. About 2,000 (36%) were called active. About 18% were inconclusive and are not listed. This is one part of the list.
Listed here are molecules together with their documented normalized growth.
parameter measured: normalized growth

| molecule | parameter measured | value |
| --- | --- | --- |
| O=C(/C=C/c1ccccc1)c1ccc(O)cc1 | normalized growth | 0.723 |
| CC(=O)O[C@@H]1CC2C(C)(C)C(=O)CC[C@]2(C)C2CC[C@@]3(C)[C@H](c4ccoc4)OC(=O)C4OC43[C@@]21C (some centres undefined) | normalized growth | 0.994 |
| O=c1oc2ccccc2c(O)c1Cc1c(O)c2ccccc2oc1=O | normalized growth | 1 |
| C[C@@H]1CC[C@@]2(OC1)OC1C(O)C3C4CC[C@H]5C[C@H](O[C@@H]6O[C@H](CO)[C@H](O[C@@H]7O[C@H](CO)[C@@H](O)[C@H](O[C@@H]8OC[C@@H](O)[C@H](O)[C@H]8O)[C@H]7O[C@@H]7O[C@H](CO)[C@H](O)[C@H](O[C@@H]8O[C@H](CO)[C@@H](O)[C@H](O)[C@H]8O)[C@H]7O)[C@H](O)[C@H]6O)[C@H](O)C[C@]5(C)C4CC[C@]3(C)C1[C@@H]2C (some centres undefined) | normalized growth | 0.0616 |
| O=c1c2ccccc2oc2ccc(O)cc12 | normalized growth | 0.859 |
| CC(=O)O[C@H]1C[C@H](O[C@H]2[C@@H](O)C[C@H](O[C@H]3[C@@H](O)C[C@H](O[C@H]4CC[C@@]5(C)C(CCC6C5C[C@@H](O)[C@]5(C)[C@@H](C7=CC(=O)OC7)CC[C@]65O)C4)O[C@@H]3C)O[C@@H]2C)O[C@H](C)[C@H]1O[C@@H]1O[C@H](CO)[C@@H](O)[C@H](O)[C@H]1O (some centres undefined) | normalized growth | 1 |
| CC(=O)CC(c1ccccc1)c1c(O)c2ccccc2oc1=O (centres undefined) | normalized growth | 1.03 |
| COc1cccc(-c2cc(=O)c3cc(OC)ccc3o2)c1 | normalized growth | 1.07 |
| Cc1coc2ccccc2c1=O | normalized growth | 1.01 |

* * *

protocol details: chemical genetic growth profiling, strain panel (AID 1159580);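 further: tested at 20 µM; growth read once vehicle control cultures reached saturation at 30 °C; 1 = growth at the plate median or of vehicle wells; lower values mean less growth of the strain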
condition info: S. cerevisiae deletion strains, growth OD, locus YDL192W, strain arf1, stronger effect = lower value
The campaign covered roughly 5,500 compounds. About 2,000 (36%) were called active. Another 18% or so got no clear call; they are omitted. Some of the results follow.
Listed here are compounds together with their documented normalized growth.
parameter measured: normalized growth

| compound | value |
| --- | --- |
| COc1ccc(-c2cc(=O)c3ccccc3o2)cc1 | 0.685 |
| COc1cccc2c1cc([N+](=O)[O-])c1c(C(=O)O)cc3c(c12)OCO3 | 1.04 |
| CC1NC(=O)NC1=O (configuration not stated) | 1.01 |
| Cc1cc2cc3c(C)cc(=O)oc3c(C)c2o1 | 0.966 |
| COc1cc([C@@H]2c3cc4c(cc3[C@H](OC(C)=O)[C@H]3COC(=O)[C@H]23)OCO4)cc(OC)c1OC | 1.01 |
| CCn1cc(C(=O)O)c(=O)c2cc(F)c(N3CCNCC3)cc21 | 0.995 |
| COc1ccc(-c2cc(=O)c3ccccc3o2)cc1OC | 0.989 |
| N[C@@H]1CONC1=O | 1.01 |
| C[N+]1(CCCCC[N+]2(C)CCCC2)CCCC1 | 1.02 |
| CC(=O)[C@H]1CCC2C3CC=C4C[C@@H](O)CC[C@]4(C)C3CC[C@@]21C (some centres not stated) | 1.02 |
| C=CCc1ccccc1OCC(O)CNC(C)C (configuration not stated) | 1.02 |
| OC1C(O)C(O)C(O)C(O)C1O (configuration not stated) | 0.977 |

* * *

protocol details: chemical genetic growth profiling, strain panel (AID 1159580);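 further: tested at 20 µM; growth read once vehicle control cultures reached saturation at 30 °C; 1 = growth at the plate median or of vehicle wells; lower values mean less growth of the strain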
condition info: S. cerevisiae deletion strains, growth OD, locus YER111C, strain swi4, stronger effect = lower value
The campaign covered roughly 5,500 compounds. About 2,000 (36%) were called active. Roughly 18% stayed inconclusive and do not appear here. The list shows a part of the results.
parameter measured: normalized growth

| compound | value |
| --- | --- |
| COc1ccc(-c2cc(=O)c3ccccc3o2)cc1 | 0.881 |
| C=CCc1ccccc1OCC(O)CNC(C)C (stereo not given) | 0.986 |
| O=c1oc2ccccc2c(O)c1Cc1c(O)c2ccccc2oc1=O | 1.01 |
| O=c1c(-c2cc(O)c(O)c(O)c2)coc2cc(O)c(O)c(O)c12 | 0.731 |
| CC(=O)OCC(=O)[C@@]1(O)CCC2C3CC[C@@H]4C[C@H](O)CC[C@]4(C)C3C(=O)C[C@@]21C (stereo not given in full) | 1.02 |
| COC(=O)C1=C(C)NC(C)=C(C(=O)OCCN(C)Cc2ccccc2)C1c1cccc([N+](=O)[O-])c1 (stereo not given) | 0.989 |
| O=C(O)c1cn(-c2ccc(F)cc2)c2cc(N3CCNCC3)c(F)cc2c1=O | 0.967 |
| NCC(=O)CCC(=O)O | 0.972 |
| CN1CCOC(c2ccccc2)c2ccccc2C1 (stereo not given) | 0.971 |
| O=C1CC[C@]23C=CC(=O)NCCCCNCCCNC(=O)/C=C/c4ccc(c2c4)O[C@@H]3C1 | 1.01 |
| O=C(O)/C=C(\CC(=O)O)C(=O)O | 0.991 |
| CC1(C)O[C@@H]2CC3C4C[C@H](F)C5=CC(=O)C=C[C@]5(C)[C@@]4(F)[C@@H](O)C[C@]3(C)[C@]2(C(=O)CO)O1 (stereo not given in full) | 1.01 |
| CC(=O)Nc1cccc(O)c1 | 1.01 |
| CC(=O)Oc1c(-c2ccccc2)oc2c(CC=C(C)C)c3c(c(OC(C)=O)c2c1=O)C=CC(C)(C)O3 | 1 |
| O=C(O)c1cc(=O)c2ccccc2o1 | 0.972 |
| O=C(O)c1nc2cc(Cl)c(Cl)cc2[nH]c1=O | 1.03 |
| CCC(/C=C/[C@@H](C)[C@H]1CCC2C3CC=C4C[C@@H](O)CC[C@]4(C)C3CC[C@@]21C)C(C)C (stereo not given in full) | 0.99 |
| CC(=O)[C@H]1CCC2C3CC=C4C[C@@H](OC(=O)CCC(=O)O)CC[C@]4(C)C3CC[C@@]21C (stereo not given in full) | 0.953 |
| CC[C@]12C=CCN3CC[C@@]4(c5ccc(OC)cc5N(C)C4[C@@](O)(C(=O)OC)[C@@H]1OC(C)=O)[C@@H]32 (stereo not given in full) | 0.981 |
| CC(=O)[C@H]1CCC2C3CC=C4C[C@@H](O)CC[C@]4(C)C3CC[C@@]21C (stereo not given in full) | 1.01 |
| CC(=O)OCC(=O)[C@H]1CCC2C3CC=C4C[C@@H](O)CC[C@]4(C)C3CC[C@@]21C (stereo not given in full) | 0.986 |
| COc1ccc(-c2coc3cc(OC(C)=O)cc(OC(C)=O)c3c2=O)cc1 | 0.968 |
| O=c1[nH]c2cc(Cl)c(Cl)cc2[nH]c1=O | 0.991 |
| CC1=NCCc2c1[nH]c1cc(O)ccc21 | 0.995 |
| [N-]=[N+]=CC(=O)OCC(N)C(=O)O (stereo not given) | 1 |
| CC(C)Oc1ccc2c(=O)cc(-c3ccccc3)oc2c1 | 0.959 |
| O=c1c2ccccc2oc2ccccc12 | 0.937 |
| CCCCCCCCCCCCCCCC[n+]1ccccc1 | 0.0669 |
| CCC(CCC(C)[C@H]1CCC2C3CC=C4C[C@@H](O)CC[C@]4(C)C3CC[C@@]21C)C(C)C (stereo not given in full) | 1.02 |
| COc1ccc(-c2cc(=O)c3c(O)c(OC)c(OC)c(OC)c3o2)cc1 | 0.997 |
| CC(C(=O)O)[C@H]1CCC2C3CC=C4C[C@@H](O)CC[C@]4(C)C3CC[C@@]21C (stereo not given in full) | 1.02 |
| O=c1c(-c2ccccc2)coc2cc(O)cc(O)c12 | 0.963 |
| Nc1ccc(C(=O)O)c(O)c1 | 0.984 |
| COc1ccc(-c2cc(=O)c3c(OC(C)=O)cc(OC(C)=O)cc3o2)cc1 | 1 |
| CC(=O)CC(c1ccccc1)c1c(O)c2ccccc2oc1=O (stereo not given) | 0.999 |
| COc1ccc(-c2cc(=O)c3cc(OC)ccc3o2)cc1 | 0.943 |
| CCn1cc(C(=O)O)c(=O)c2cc(F)c(N3CCNCC3)cc21 | 0.975 |
| COc1ccc(-c2cc(=O)c3ccccc3o2)cc1OC | 0.913 |
| O=C1CCc2cc(OCCCCc3nnnn3C3CCCCC3)ccc2N1 | 0.979 |
| C=C1C(N)CC2CC1C2(C)C (stereo not given) | 0.989 |
| CC(=O)Oc1cc(-c2coc3cc(OC(C)=O)c(OC(C)=O)c(OC(C)=O)c3c2=O)cc(OC(C)=O)c1OC(C)=O | 0.469 |
| Nc1ccc(C(=O)Oc2ccccc2)c(O)c1 | 0.938 |
| COc1ccc(-c2cc(=O)c3c(OC)c(OC)c(OC)c(OC)c3o2)cc1 | 0.978 |
| O=C1c2c(O)ccc(O)c2C(=O)c2c(NCCNCCO)ccc(NCCNCCO)c21 | 0.397 |
| COc1c(O)cc2c(-c3ccccc3)cc(=O)oc2c1OC | 0.997 |
